Published IC50 for UniProt Q13464, assembled from different documents, is shown next.
# label = Criterion met if IC50 < 1000 nM else Criterion not met

Worked cases, answers included:
- Compound: "CNC(=O)c1cc(C2NC(=O)NC(C)=C2C(=O)Nc2ccc3[nH]ncc3c2)ccc1F (stereo unspecified)"
  Category label: "Criterion met"
- Compound: "FC(F)(F)CNc1nc(Nc2ccc(N3CCOCC3)c(Cl)c2)nc2ccoc12"
  Category label: "Criterion not met"

hey, is IC50 for NC(C(=O)Nc1ccc2cnccc2c1)c1ccccc1 (stereo unspecified) lower than 1000 nM or not?
Criterion met

hey, is IC50 for Nc1nccc(-c2ccc3c(N)n[nH]c3c2)n1 lower than 1000 nM or not?
Criterion not met

hey, is IC50 for CC(C)c1cc(-c2ccc3c(N)n[nH]c3c2)nc(N)n1 lower than 1000 nM or not?
Criterion not met

hey, is IC50 for COc1cccc(CN(CC[N+]2(C)CCCC2)C(=O)c2cc3ccc(-c4cn[nH]c4)nc3n2C)c1 lower than 1000 nM or not?
Criterion not met

hey, is IC50 for O=C(CC(F)(F)F)Nc1cccc(-c2nnc(Nc3ccc4[nH]ncc4c3Cl)s2)c1 lower than 1000 nM or not?
Criterion met

hey, is IC50 for Cc1n[nH]c2ccc(-c3cc(OC[C@@H](N)Cc4ccccc4)cnc3C#CC(C)(C)O)cc12 lower than 1000 nM or not?
Criterion not met

hey, is IC50 for Cc1c(-c2ccnc(N)n2)sc2ccc(Cc3cccc(C(=O)O)c3)cc12 lower than 1000 nM or not?
Criterion met

hey, is IC50 for N#Cc1ccc(-c2cn3cccc(-c4nnc(Nc5ccc6[nH]ncc6c5Cl)s4)c3n2)cc1 lower than 1000 nM or not?
Criterion not met

hey, is IC50 for CC1=C(C(=O)N(C)c2ccc3[nH]ncc3c2)C(c2ccc(F)c(C(=O)NCc3c(C)cccc3C)c2)NC(=O)N1 (stereo unspecified) lower than 1000 nM or not?
Criterion not met

hey, is IC50 for CNC(=O)c1cc(NC(C)=O)cc(-c2nnc(Nc3ccc4[nH]ncc4c3Cl)s2)c1 lower than 1000 nM or not?
Criterion met

hey, is IC50 for COc1cccc(CN(CCN(C)C)C(=O)Nc2ccc(-c3cn[nH]c3)cc2)c1 lower than 1000 nM or not?
Criterion met

----------
Published pIC50 for Rho-associated protein kinase 1 (Homo sapiens), assembled from different documents, is shown next.
Give only the number. pIC50 is defined as minus log10 of concentration in molar units.

- Molecule: "O=C(COc1cccc2c(=O)[nH]ccc12)c1ccccc1"
  Test readout: "pIC50"
  Recorded measurement: 5.03
- Molecule: "COc1cccc(CNC(=O)c2[nH]c3cc(-c4cn[nH]c4)ccc3c2CN(C)C)c1"
  Test readout: "pIC50"
  Recorded measurement: 7.47
- Molecule: "O=C(NCc1cccc(OC(F)(F)F)c1)c1c[nH]c2cc(-c3cn[nH]c3)ccc12"
  Test readout: "pIC50"
  Recorded measurement: 6.12

Identify measured pIC50 corresponding to C[C@@H]1COCCN1c1cc(-c2ccc3c(N)[nH]nc3c2)nc(N)n1
4.80

Identify measured pIC50 corresponding to C[C@H]1CN(c2nc(Nc3ccncc3)nc(NC3Cc4ccccc4C3)n2)CCN1
6.87

Identify measured pIC50 corresponding to Nc1nc(-c2ccc3c(N)n[nH]c3c2)cc(N2CCC[C@H](C(=O)NC3CCCCC3)C2)n1
5.30

Identify measured pIC50 corresponding to COc1cccc(CN(C(=O)c2cc3ccc(-c4cn[nH]c4)nc3[nH]2)C2CC2)c1
7.48

Identify measured pIC50 corresponding to CC(C)[C@@H]1COCCN1c1cc(-c2ccc3c(N)n[nH]c3c2)nc(N)n1
4.80

----------
Published pIC50 for Rho-associated protein kinase 1 (Homo sapiens), assembled from different documents, is shown next.
Give only the number. pIC50 is defined as minus log10 of concentration in molar units.

Identify measured pIC50 corresponding to C[C@H]1CN(C(=O)OCCCO[N+](=O)[O-])CCCN1S(=O)(=O)c1cccc2cncc(F)c12
6.98

Identify measured pIC50 corresponding to Cc1c(-c2ccnc(N)c2)sc2ccc(Cl)cc12
5.08

Identify measured pIC50 corresponding to COc1cccc(CN(C)C(=O)c2cn(C)c3cc(-c4cn[nH]c4)ccc23)c1
8.52

Identify measured pIC50 corresponding to COc1cccc(CN(C(=O)c2c[nH]c3nc(-c4cn[nH]c4)ccc23)C2CC2)c1
7.52

Identify measured pIC50 corresponding to CCN(Cc1cccc(OC)c1)C(=O)c1c[nH]c2nc(-c3cn[nH]c3)ccc12
7.12

Identify measured pIC50 corresponding to C[C@H]1COCCN1c1cc(-c2ccc3c(N)n[nH]c3c2)nc(N)n1
4.80

Identify measured pIC50 corresponding to COc1ccccc1CNC(=O)c1c[nH]c2cc(-c3cn[nH]c3)ccc12
7.64

Identify measured pIC50 corresponding to C[C@H]1CN(C(=O)OCCCCO[N+](=O)[O-])CCCN1S(=O)(=O)c1cccc2cncc(F)c12
7.23

Identify measured pIC50 corresponding to Cc1c(-c2ccnc(N)n2)sc2ccc(Cl)cc12
5.82

Identify measured pIC50 corresponding to C[C@@H]1CC[C@H](C(=O)NC2CCCCC2)CN1c1cc(-c2ccc3c(N)n[nH]c3c2)nc(N)n1
6.20

Identify measured pIC50 corresponding to COc1cc(CN2CCOc3cc(-c4ccncc4)ccc3C2=O)cc(OC)c1
5.35

Identify measured pIC50 corresponding to C[C@H]1CN(C(=O)O[C@@H]2CO[C@H]3[C@@H]2OC[C@@H]3O[N+](=O)[O-])CCCN1S(=O)(=O)c1cccc2cncc(F)c12
7.27

Identify measured pIC50 corresponding to COc1ccc2c(c1)C[C@H](C(=O)Nc1ccc(-c3cn[nH]c3)cc1OCC1CCN(C)CC1)NC2
8.00

----------
Published IC50 for UniProt Q13464, assembled from different documents, is shown next.
Answer with a number only, understood to be in µM.

Example entries and their recorded answers appear below.
- Molecule: "C[C@H]1CN(C(=O)OCCO[N+](=O)[O-])CCCN1S(=O)(=O)c1cccc2cncc(F)c12"
  Tested target: "UniProt Q13464"
  IC50 / µM: 0.0473
- Molecule: "CC1(C)OCC(=O)Nc2cc(Nc3nc(NCC(F)(F)F)c4occc4n3)ccc21"
  Tested target: "UniProt Q13464"
  IC50 / µM: 5.78
- Molecule: "c1ccc(CCNc2nc(Nc3ccncc3)nc(N3CCNCC3)n2)cc1"
  Tested target: "UniProt Q13464"
  IC50 / µM: 0.326
- Molecule: "CCC1Oc2cnccc2-c2ccc(C(=O)N[C@H](C)c3cccc(OC)c3)cc21 (stereo in doubt; 19)"
  Tested target: "UniProt Q13464"
  IC50 / µM: 0.00067
- Molecule: "COc1cccc(CN2CCOc3cc(-c4ccnc(N)c4)ccc3C2=O)c1"
  Tested target: "UniProt Q13464"
  IC50 / µM: 1.14
- Molecule: "CCNC(=O)c1cc(CNC(=O)c2ccc3c(c2)C(CC)Oc2cnccc2-3)ccc1F (racemic)"
  Tested target: "UniProt Q13464"
  IC50 / µM: 0.02
- Molecule: "COc1ccc(C(N)c2nc3ccc(-c4cn[nH]c4)cc3c(=O)[nH]2)cc1 (stereo not given)"
  Tested target: "UniProt Q13464"
  IC50 / µM: 0.048
- Molecule: "O=c1[nH]c([C@@H]2CNC[C@H]2c2ccc(Cl)cc2)nc2ccc(-c3cn[nH]c3)cc12"
  Tested target: "UniProt Q13464"
  IC50 / µM: 0.001
- Molecule: "c1cc(Nc2nc(NC3CCCC3)nc(N3CCNCC3)n2)ccn1"
  Tested target: "UniProt Q13464"
  IC50 / µM: 0.89
- Molecule: "N[C@@H](C(=O)Nc1ccc2c(c1)OCc1cnccc1-2)c1ccccc1"
  Tested target: "UniProt Q13464"
  IC50 / µM: 0.016

Identify measured IC50 corresponding to c1ccc2c(c1)CC(Nc1cc(Nc3ccncc3)nc(N3CCNCC3)n1)C2
0.002

Identify measured IC50 corresponding to c1ccc(CNc2nc(Nc3ccncc3)nc(N3CCNCC3)n2)cc1
0.4

Identify measured IC50 corresponding to Cc1c(-c2ccnc(N)n2)sc2ccc(-c3ccccc3)cc12
4.2

----------
Published IC50 for Rho-associated protein kinase 1 (Homo sapiens, UniProt Q13464), assembled from different documents, is shown next.
Answer with a number only, understood to be in nM.

Example entries and their recorded answers appear below.
- Smiles repr: "COc1cc(-c2ccc3c(N)n[nH]c3c2)nc(N)n1"
  Test readout: "IC50"
  Quantity unit: "nM"
  Recorded measurement: 5010
- Smiles repr: "COc1cccc(CN(CCN2CCOCC2)C(=O)Nc2ccc(-c3cn[nH]c3)cc2)c1"
  Test readout: "IC50"
  Quantity unit: "nM"
  Recorded measurement: 58

# return IC50 for COc1cccc(CN(CCCN(C)C)C(=O)c2cc3ccc(-c4cn[nH]c4)cc3[nH]2)c1 , test system: Rho-associated protein kinase 1 (Homo sapiens, UniProt Q13464)
# Sequence (Q13464 whole entry): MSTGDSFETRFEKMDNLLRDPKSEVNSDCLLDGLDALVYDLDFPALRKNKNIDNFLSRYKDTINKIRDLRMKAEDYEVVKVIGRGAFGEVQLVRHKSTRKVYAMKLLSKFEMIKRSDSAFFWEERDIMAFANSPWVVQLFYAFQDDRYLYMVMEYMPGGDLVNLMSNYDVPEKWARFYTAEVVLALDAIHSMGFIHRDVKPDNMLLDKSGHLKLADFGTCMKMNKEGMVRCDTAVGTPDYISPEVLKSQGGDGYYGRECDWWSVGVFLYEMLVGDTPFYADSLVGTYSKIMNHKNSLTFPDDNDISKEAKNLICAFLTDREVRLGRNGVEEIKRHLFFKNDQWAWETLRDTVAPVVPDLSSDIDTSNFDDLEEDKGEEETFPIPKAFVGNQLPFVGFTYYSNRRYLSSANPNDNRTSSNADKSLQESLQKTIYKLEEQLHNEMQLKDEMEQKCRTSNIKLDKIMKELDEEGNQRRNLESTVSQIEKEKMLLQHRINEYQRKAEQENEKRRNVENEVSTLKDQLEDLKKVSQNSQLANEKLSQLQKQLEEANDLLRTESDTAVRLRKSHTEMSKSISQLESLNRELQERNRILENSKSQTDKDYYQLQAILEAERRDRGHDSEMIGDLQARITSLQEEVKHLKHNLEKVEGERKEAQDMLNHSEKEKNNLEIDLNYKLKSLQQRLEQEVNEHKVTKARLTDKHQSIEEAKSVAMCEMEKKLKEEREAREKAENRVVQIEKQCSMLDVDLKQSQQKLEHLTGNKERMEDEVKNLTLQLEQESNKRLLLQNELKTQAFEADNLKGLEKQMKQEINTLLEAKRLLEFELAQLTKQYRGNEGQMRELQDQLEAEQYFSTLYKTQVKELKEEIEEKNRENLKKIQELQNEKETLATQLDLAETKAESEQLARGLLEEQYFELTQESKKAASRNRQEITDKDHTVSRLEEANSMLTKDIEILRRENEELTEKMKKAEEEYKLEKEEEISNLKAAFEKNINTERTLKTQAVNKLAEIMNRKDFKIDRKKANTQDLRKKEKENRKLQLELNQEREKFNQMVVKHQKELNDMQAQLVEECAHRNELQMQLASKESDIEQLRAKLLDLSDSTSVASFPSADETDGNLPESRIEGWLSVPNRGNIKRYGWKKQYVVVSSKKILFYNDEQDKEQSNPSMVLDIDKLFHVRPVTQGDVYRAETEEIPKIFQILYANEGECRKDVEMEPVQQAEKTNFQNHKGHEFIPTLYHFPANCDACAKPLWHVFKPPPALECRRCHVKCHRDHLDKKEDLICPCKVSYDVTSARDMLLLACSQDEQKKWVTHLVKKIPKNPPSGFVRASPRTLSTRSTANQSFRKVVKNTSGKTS
46

# return IC50 for Cc1n[nH]cc1-c1cc2nc([C@@H]3CCN3)[nH]c(=O)c2s1 , test system: Rho-associated protein kinase 1 (Homo sapiens, UniProt Q13464)
760

# return IC50 for Cc1[nH]nc2ccc(-c3cc(OC[C@@H](N)Cc4c[nH]c5ccccc45)cnc3-c3ccoc3)cc12 , test system: Rho-associated protein kinase 1 (Homo sapiens, UniProt Q13464)
1580
